experiment: Stability of cannabinoid compounds and Vitamin E components in Beverage 1 (AB White) by LCMSMS; assay type: physicochemical; conditions: AB White stored at 21-25° C.; 300 days
quantity.name: Stability of Plant-Derived Cannabinoid Compounds in AB White, 21-25° C.
The reply should read as a number followed by its unit.

The cases that follow already have their Stability of Plant-Derived Cannabinoid Compounds in AB White, 21-25° C. on record.
> print(dat)
                                   molecule      result
1  CCCc1cc(O)c2c(c1)OC(C)(C)[C@@H]1CCC(C)=C[C@@H]21 [THCV, delta-9-tetrahydrocannabivarin]  3.52 µg/mL
2  C=C(C)[C@@H]1CCC(C)=C[C@H]1c1c(O)cc(CCCCC)c(C(=O)O)c1O [CBDA, cannabidiolic acid]  1.73 µg/mL
3  CCCCCc1cc(O)c2c(c1)OC(C)(C)c1ccc(C)cc1-2 [CBN, cannabinol]  2.73 µg/mL

[Q] # lookup: Stability of Plant-Derived Cannabinoid Compounds in AB White, 21-25° C. of CCCCCc1cc(O)c(C/C=C(\C)CCC=C(C)C)c(O)c1 [CBG, cannabigerol]
[A] 4.67 µg/mL

[Q] Cool, now CCCCCc1cc2c(c(O)c1C(=O)O)[C@@H]1C=C(C)CC[C@H]1C(C)(C)O2 [D9 THCA, delta-9-tetrahydrocannabinolic acid]
[A] 0.888 µg/mL

[Q] Cool, now CCCCCc1cc(O)c2c(c1)OC(C)(C)[C@@H]1CCC(C)=C[C@@H]21 [D9 THC, delta-9-tetrahydrocannabinol, reference compound]
[A] 12.0 µg/mL

[Q] Cool, now CCCCCc1cc(O)c2c(c1)OC(C)(CCC=C(C)C)C=C2 (stereo not drawn) [CBC, cannabichromene]
[A] 0.312 µg/mL

[Q] Cool, now C=C(C)[C@@H]1CCC(C)=C[C@H]1c1c(O)cc(CCC)cc1O [CBDV, cannabidivarin]
[A] 0.142 µg/mL

[Q] Cool, now CCCCCc1cc(O)c2c(c1)OC1(C)CCC3C1C2C3(C)C (stereo not drawn) [CBL, cannabicyclol]
[A] 0.532 µg/mL

====

experiment: Stability of cannabinoid entourage and Vitamin E components of the powder concentrate by LCMSMS; type: physicochemical; conditions: powder stored at 21-25° C.; 570 days
Note to self: Stability of Plant-Derived Cannabinoid Compounds in Powder Concentrate under 0.5 mg/g powder means 1, ties and anything higher get 0.

# count of solved cases: 2
> print(dat)
                                   compound  discrete.label
1  CCCCCc1cc(O)c2c(c1)OC1(C)CCC3C1C2C3(C)C (stereo not shown) [CBL, cannabicyclol]               1
2  CCCCCc1cc(O)c2c(c1)OC(C)(C)c1ccc(C)cc1-2 [CBN, cannabinol]               1

[Q] Is Stability of Plant-Derived Cannabinoid Compounds in Powder Concentrate strictly under 0.5 mg/g powder for the entry C=C(C)[C@@H]1CCC(C)=C[C@H]1c1c(O)cc(CCC)cc1O [CBDV, cannabidivarin] ?
[A] 1

[Q] Cool, now CCCc1cc(O)c2c(c1)OC(C)(C)[C@@H]1CCC(C)=C[C@@H]21 [THCV, delta-9-tetrahydrocannabivarin]
[A] 0

[Q] Cool, now CCCCCc1cc(O)c(C/C=C(\C)CCC=C(C)C)c(O)c1 [CBG, cannabigerol]
[A] 0

====

assay: Stability of cannabinoid compounds and Vitamin E components in Beverage 2 (AB Red) by LCMSMS; type: physicochemical; conditions: stored at 8° C., 480 days
Class key for Stability of Plant-Derived Cannabinoid Compounds in AB Red values: low (below 0.5 µg/mL), mid (0.5 µg/mL to below 3 µg/mL), high (3 µg/mL or more)

> print(dat)
                                   compound  discrete.label
1  CCCCCc1cc(O)c(C/C=C(\C)CCC=C(C)C)c(O)c1 [CBG, cannabigerol]            high

[Q] Which bin should I file CCCCCc1cc2c(c(O)c1C(=O)O)[C@@H]1C=C(C)CC[C@H]1C(C)(C)O2 [D9 THCA, delta-9-tetrahydrocannabinolic acid] under?
[A] mid

[Q] Cool, now CCCCCc1cc(O)c2c(c1)OC(C)(CCC=C(C)C)C=C2 (stereo not drawn) [CBC, cannabichromene]
[A] low

[Q] Cool, now CCCCCc1cc(O)c2c(c1)OC(C)(C)c1ccc(C)cc1-2 [CBN, cannabinol]
[A] mid

====

Stability of Plant-Derived Cannabinoid Compounds in AB Red for assorted compounds
test: Stability of cannabinoid compounds and Vitamin E components in Beverage 2 (AB Red) by LCMSMS; type: physicochemical; settings: stored at 21-25° C., 60 days
Numeric only. Scale: µg/mL

The cases that follow already have their Stability of Plant-Derived Cannabinoid Compounds in AB Red on record.
> print(dat)
                                   compound  scale.unit  measured.number
1  CCCc1cc(O)c2c(c1)OC(C)(C)[C@@H]1CCC(C)=C[C@@H]21 [THCV, delta-9-tetrahydrocannabivarin]       µg/mL             3.18
2  CCCCCc1cc(O)c2c(c1)OC(C)(C)[C@@H]1CCC(C)=C[C@@H]21 [D9 THC, delta-9-tetrahydrocannabinol, reference compound]       µg/mL             12.2

Alright, here's another compound for you.
[Q] # lookup: Stability of Plant-Derived Cannabinoid Compounds in AB Red of C=C(C)[C@@H]1CCC(C)=C[C@H]1c1c(O)cc(CCCCC)c(C(=O)O)c1O
[A] 1.59

====

test: Stability of cannabinoid entourage and Vitamin E components of the powder concentrate by LCMSMS; type: physicochemical; conditions: powder stored at 21-25° C.; 8 days
quantity.name: Stability of Plant-Derived Cannabinoid Compounds in Powder Concentrate

The cases that follow already have their Stability of Plant-Derived Cannabinoid Compounds in Powder Concentrate on record.
> print(dat)
                                   compound             result
1  CCCCCc1cc(O)c2c(c1)OC(C)(C)c1ccc(C)cc1-2 [CBN, cannabinol]  0.469 mg/g powder
2  CCCCCc1cc(O)c2c(c1)OC(C)(C)[C@@H]1CCC(C)=C[C@@H]21 [D9 THC, delta-9-tetrahydrocannabinol, reference compound]   2.49 mg/g powder
3  C=C(C)[C@@H]1CCC(C)=C[C@H]1c1c(O)cc(CCCCC)cc1O [CBD, cannabidiol, reference compound]   5.91 mg/g powder
4  CCCc1cc(O)c2c(c1)OC(C)(C)[C@@H]1CCC(C)=C[C@@H]21 [THCV, delta-9-tetrahydrocannabivarin]  0.685 mg/g powder
5  CCCCCc1cc(O)c2c(c1)OC1(C)CCC3C1C2C3(C)C (stereo not shown) [CBL, cannabicyclol]  0.050 mg/g powder

Alright, here's another compound for you.
[Q] # lookup: Stability of Plant-Derived Cannabinoid Compounds in Powder Concentrate of C=C(C)[C@@H]1CCC(C)=C[C@H]1c1c(O)cc(CCCCC)c(C(=O)O)c1O [CBDA, cannabidiolic acid]
[A] 0.415 mg/g powder

====

experiment: Stability of cannabinoid compounds and Vitamin E components in Beverage 1 (AB White) by LCMSMS; assay type: physicochemical; conditions: AB White stored at 21-25° C.; 450 days
Stability of Plant-Derived Cannabinoid Compounds in AB White, 21-25° C. for assorted compounds
Numeric only. Scale: µg/mL

[Q] # lookup: Stability of Plant-Derived Cannabinoid Compounds in AB White, 21-25° C. of CCCCCc1cc(O)c(C/C=C(\C)CCC=C(C)C)c(O)c1
[A] 4.73

[Q] Cool, now CCCCCc1cc(O)c2c(c1)OC1(C)CCC3C1C2C3(C)C (stereo not drawn)
[A] 0.521

[Q] Cool, now CCCCCc1cc(O)c2c(c1)OC(C)(C)c1ccc(C)cc1-2
[A] 2.61

[Q] Cool, now CCCc1cc(O)c2c(c1)OC(C)(C)[C@@H]1CCC(C)=C[C@@H]21 [THCV, delta-9-tetrahydrocannabivarin]
[A] 3.47

====

test: Stability of cannabinoid compounds and Vitamin E components in Beverage 1 (AB White) by LCMSMS; type: physicochemical; conditions: AB White stored at 8° C.; 2 days
Stability of Plant-Derived Cannabinoid Compounds in AB White, 8° C. for assorted compounds

The cases that follow already have their Stability of Plant-Derived Cannabinoid Compounds in AB White, 8° C. on record.
> print(dat)
                                   compound       result
1  CCCCCc1cc(O)c2c(c1)OC(C)(C)[C@@H]1CCC(C)=C[C@@H]21 [D9 THC, delta-9-tetrahydrocannabinol, reference compound]  11.91 µg/mL
2  CCCCCc1cc2c(c(O)c1C(=O)O)[C@@H]1C=C(C)CC[C@H]1C(C)(C)O2 [D9 THCA, delta-9-tetrahydrocannabinolic acid]  0.954 µg/mL
3  CCCc1cc(O)c2c(c1)OC(C)(C)[C@@H]1CCC(C)=C[C@@H]21 [THCV, delta-9-tetrahydrocannabivarin]   3.60 µg/mL

Alright, here's another compound for you.
[Q] # lookup: Stability of Plant-Derived Cannabinoid Compounds in AB White, 8° C. of CCCCCc1cc(O)c2c(c1)OC(C)(CCC=C(C)C)C=C2 (stereo not shown) [CBC, cannabichromene]
[A] 0.315 µg/mL
